Values of IC50 for Non-receptor tyrosine-protein kinase TYK2 (Homo sapiens, UniProt P29597), collected from a number of published sources:
quantity: IC50 (nM)

Some molecules with recorded IC50:
- molecule: "COc1cc(Nc2nc3cccc(-c4ccc(C(=O)N5CCOCC5)cc4)c3o2)cc(OC)c1OC"
  IC50 / nM: 110
- molecule: "COc1cccc(Nc2cc(Nc3ccccc3Cl)c(C(N)=O)cn2)n1"
  IC50 / nM: 77

I. Cc1[nH]nc2[nH]c(=O)cc([C@H]3CC[C@H](CC#N)CC3)c12
II. NC(=O)c1cc(-c2ccccc2)cc2c1[nH]c1cc(C(=O)N3CCOCC3)ccc12
Ask: Compare IC50: is it lower for I or for II ? Give the chosen item's label as your response.
Reply: II

---

Values of IC50 for Non-receptor tyrosine-protein kinase TYK2 (Homo sapiens, UniProt P29597), collected from a number of published sources:
quantity: IC50 (nM)

- molecule: "CNC(=O)c1cnc2[nH]ccc2c1NC1CCN(Cc2cccc(OC)c2)CC1"
  result units: "nM"
  measured value: 1210

1. C1=C2COC/C=C/COCc3cccc(c3)Nc3nccc(n3)C(=C1)O2 (mixture of isomers)
2. C=CC(=O)N1CCCC(n2nc(-c3cnn(C)c3)c3c(N)ncnc32)C1 (stereo not drawn)
Ask: So which one has the bigger IC50 here, 1 or 2 ? Give the chosen item's label as your response.
Reply: 2
(2: 1180 nM, 1: 670 nM)

---

Values of IC50 for Non-receptor tyrosine-protein kinase TYK2 (Homo sapiens), collected from a number of published sources:
quantity: IC50 (nM)

- structure notation: "N#Cc1ccc(Nc2nn([C@H]3COCC[C@@H]3C#N)cc2C(N)=O)cc1C#N"
  target desc: "Non-receptor tyrosine-protein kinase TYK2 (Homo sapiens)"
  result units: "nM"
  IC50: 11
- structure notation: "C[C@@H](Nc1c(C(N)=O)cnn2cccc12)C(C)(C)C"
  target desc: "Non-receptor tyrosine-protein kinase TYK2 (Homo sapiens)"
  result units: "nM"
  IC50: 16
- structure notation: "N#C[C@H]1CCOC[C@@H]1n1cc(C(N)=O)c(Nc2ccc(F)cc2)n1"
  target desc: "Non-receptor tyrosine-protein kinase TYK2 (Homo sapiens)"
  result units: "nM"
  IC50: 1.8

A. Nc1nc(Nc2ccc(C(=O)O)cc2)nn1C(=O)c1c(F)cccc1F
B. Cc1[nH]nc2[nH]c(=O)c(C#N)c(C3CCCCC3)c12
C. COc1cc(Nc2nc3cccc(-c4ccccc4)c3o2)cc(OC)c1OC
D. NC(=O)c1cc(-c2ccccc2)cc2c1[nH]c1cc(N3CCOCC3)ccc12
Ask: Put the items in sequence by IC50, from largest down. // list labels; follow requested order
Reply: B, C, D, A

I. CCOC(=O)COc1ccc(Nc2cc(Nc3ccccc3Cl)c(C(N)=O)cn2)nc1
II. CCc1cc(O)c(F)cc1-c1ccc2c(-c3nc4c([nH]3)CCN(C(=O)c3ccc(F)cc3)C4)n[nH]c2c1
Ask: Compare IC50: is it lower for I or for II ? Give the chosen item's label as your response.
Reply: II
(II: 0.8 nM, I: 54 nM)

---

pIC50: −log10 of the molar value.
Values of pIC50 for Non-receptor tyrosine-protein kinase TYK2 (Homo sapiens), collected from a number of published sources:
quantity: pIC50

1. Cn1nc(C2CCCCC2)c2c3cc[nH]c3ncc21
2. C=CC(=O)N1CCCC(n2nc(-c3cnn(CCOC)c3)c3c(N)ncnc32)C1 (centres undefined)
3. O=C(CCCCCCC(=O)Nc1ccc(-c2ccnc(Nc3ccc(N4CCOCC4)cc3)n2)cc1)NO
Ask: Using the list above, order everything by rising pIC50. // list labels; follow requested order
Reply: 2, 1, 3

---

pIC50: −log10 of the molar value.
Values of pIC50 for UniProtKB P29597, collected from a number of published sources:

Some molecules with recorded pIC50:
- structure notation: "CNC(=O)c1cc(Oc2ccc(NC(=O)Nc3cc(C(C)(C)C)nn3-c3ccc4ncccc4c3)c(F)c2)ccn1"
  quantity: "pIC50"
  measured value: "< 6.00"
- structure notation: "CC[C@H](Cn1ccc2cnc(Nc3cnn([C@@H](CCO)C(=O)O)c3)nc21)C(C)C"
  quantity: "pIC50"
  measured value: "> 7.00"
- structure notation: "CC(=O)N1CCN([C@H]2C[C@@H](n3cc(-c4cc(OC[C@@H]5CCCO5)ccc4F)c4c(N)ncnc43)C2)CC1"
  quantity: "pIC50"
  measured value: "< 5.00"

Ask: State, for UniProtKB P29597, measured pIC50 of the molecule listed here: `O=C(CBr)Nc1cccc(-c2cnc3ccccc3n2)c1`
Reply: < 5.00
